measured-on: various mutants of kinase EGFR (BaF3 cell lines stably transfected with kinase) (Homo sapiens, UniProt P00533, C797S/L858R/T790M)
Construct: expressed in transfected cells; host or cells: BaF3
Sequence (P00533 25-1210 T790M/C797S/L858R): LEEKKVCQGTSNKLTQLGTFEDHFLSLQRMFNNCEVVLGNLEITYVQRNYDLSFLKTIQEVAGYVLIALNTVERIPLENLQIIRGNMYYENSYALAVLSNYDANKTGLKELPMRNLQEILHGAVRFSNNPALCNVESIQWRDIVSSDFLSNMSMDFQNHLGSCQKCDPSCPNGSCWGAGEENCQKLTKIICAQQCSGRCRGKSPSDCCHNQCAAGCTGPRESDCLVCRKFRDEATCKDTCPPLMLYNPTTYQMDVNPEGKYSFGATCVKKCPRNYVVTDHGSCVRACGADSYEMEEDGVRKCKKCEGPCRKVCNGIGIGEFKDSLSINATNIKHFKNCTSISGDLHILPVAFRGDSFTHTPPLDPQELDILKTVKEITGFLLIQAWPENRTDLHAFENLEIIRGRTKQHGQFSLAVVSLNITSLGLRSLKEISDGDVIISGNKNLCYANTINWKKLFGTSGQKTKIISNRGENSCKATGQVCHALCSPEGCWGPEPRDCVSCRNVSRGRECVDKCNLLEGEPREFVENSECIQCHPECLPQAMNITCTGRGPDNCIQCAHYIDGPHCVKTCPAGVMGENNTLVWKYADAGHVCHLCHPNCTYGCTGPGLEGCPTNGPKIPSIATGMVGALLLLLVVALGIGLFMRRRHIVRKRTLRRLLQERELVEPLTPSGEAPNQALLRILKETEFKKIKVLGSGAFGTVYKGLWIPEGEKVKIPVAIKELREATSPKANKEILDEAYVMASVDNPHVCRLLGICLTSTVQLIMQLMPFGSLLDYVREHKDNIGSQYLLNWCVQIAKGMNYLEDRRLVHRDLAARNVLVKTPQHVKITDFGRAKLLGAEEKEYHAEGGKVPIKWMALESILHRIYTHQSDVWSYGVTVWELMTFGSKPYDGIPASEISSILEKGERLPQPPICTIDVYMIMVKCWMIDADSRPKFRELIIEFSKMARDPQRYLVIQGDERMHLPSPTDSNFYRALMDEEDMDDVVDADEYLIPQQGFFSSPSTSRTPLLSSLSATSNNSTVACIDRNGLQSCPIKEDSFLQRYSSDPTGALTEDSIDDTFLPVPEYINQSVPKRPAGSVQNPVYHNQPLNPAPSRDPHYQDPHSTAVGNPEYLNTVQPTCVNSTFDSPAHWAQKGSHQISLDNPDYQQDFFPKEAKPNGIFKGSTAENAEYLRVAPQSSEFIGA
assay-explanation: Growth inhibitory activity of compounds on BaF3 cell lines stably transfected with kinase (MTS, 48 h)
Type: cell-based
particulars: BaF3 cells stably transfected with EGFR L858R/T790M/C797S, read-out: IC50, growth inhibition, L858R/T790M/C797S
Below, each of the molecules is paired with its reported IC50 value.

>>> print(df.to_string())
                                   compound  measured_value
0  COc1cc(N2CCC(N3CCN(C)CC3)CC2)c(CC2CC2)cc1Nc1ncc(F)c(Nc2ccc3nccnc3c2N(C)S(C)(=O)=O)n1    50 to 500 nM

Lab note: "CCc1cc(Nc2ncc(Br)c(Nc3ccc4nccnc4c3N(C)S(=O)(=O)C3CC3)n2)c(OC(F)(F)F)cc1N1CCC(N2CCN(C)CC2)CC1" gave IC50 of 50 to 500 nM

Lab note: "COc1cc(N2CCC(N3CCN(C)CC3)CC2)c(Cc2ccccc2)cc1Nc1ncc(F)c(Nc2ccc3nccnc3c2N(C)S(C)(=O)=O)n1" gave IC50 of 500 to 2500 nM

Lab note: "CCc1cc(Nc2ncc(Cl)c(Nc3ccc4nccnc4c3N(CC)S(C)(=O)=O)n2)c(OC)cc1N1CCC(N(C)C)CC1" gave IC50 of ≤ 50 nM

Lab note: "CCc1cc(Nc2ncc(Cl)c(Nc3ccc4nccnc4c3N(C)S(C)(=O)=O)n2)c(OC)cc1N1CCN(C)CC1" gave IC50 of ≤ 50 nM

Lab note: "COc1cc(N2CCC(N(C)C)CC2)c(C)cc1Nc1ncc(C2CC2)c(Nc2ccc3nccnc3c2N(C)S(C)(=O)=O)n1" gave IC50 of ≤ 50 nM
